test: rescue of yeast from PfHsp40 toxicity, primary screen, S. cerevisiae, ATP luminescence (AID 504582);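 also: yeast W303a lacking pdr1 and pdr3 grown in galactose medium; growth measured after three days at 30 °C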; details: S. cerevisiae expressing PfHsp40, growth rescue, at 12.5 µM
Among all 340,000 compounds or so, about 2,300 (0.68%) were called active. Rule as the data show it: active = growth rescue above about 28% (passing the limit was not always enough); inconclusive = no clear call, values can overlap the other calls. The sample as a whole holds a higher share of actives than the screen did.
Hi there, use one of these labels in your reply, thanks! YES (active), NO (inactive)

**Query** Assay result, entry `Cc1ccc2c(c1)N(CC(=O)N1CCOCC1)C(=O)CO2` — outcome?
**Result** NO

**Query** Hi team, can someone confirm the assay call for Cc1ccc2c(c1)C(c1ccccc1)N(C(=O)c1ccc(F)cc1)CC(=O)N2 (stereo not given) ?
**Result** NO

**Query** Short answer needed: outcome of this test for `COc1ccc(CNC(=O)COC(=O)c2sccc2C)cc1OC` ?
**Result** NO

**Query** For Cc1ccc2c(c1)C(c1ccccc1)N(C(=O)c1ccc(S(=O)(=O)N3CCOCC3)cc1)CC(=O)N2 (stereo not given) , what call appears in the results of this test?
**Result** YES

**Query** Assay result, entry COc1ccc2c(c1)OC(O)(C(F)(F)C(F)F)CC2=O (stereo not given) — outcome?
**Result** NO

* * *

experiment: rescue of yeast from PfHsp40 toxicity, primary screen, S. cerevisiae, ATP luminescence (AID 504582);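 also: yeast W303a lacking pdr1 and pdr3 grown in galactose medium; growth measured after three days at 30 °C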; conditions: S. cerevisiae expressing PfHsp40, growth rescue, at 12.5 µM, stronger effect = higher value
About 2,300 (0.68%) of roughly 340,000 compounds were called active. The entries come from a sample that favours actives as a whole.
Exercise: for every item that follows, state its recorded growth rescue.
Supply the numeric figure in %, leaving out any unit text.

**Query** // returns reported growth rescue for input `O=C(NN=Cc1ccccc1O)NN=Cc1ccccc1O`
**Result** -0.914

**Query** Need growth rescue, item `COc1ccc(CNC(=O)COC(=O)C2=Cc3ccccc3OC2)cc1`
**Result** 0.075

**Query** # input compound: Cc1c(C(=O)N2CCCC2)c(S(=O)(=O)NCC(C)c2ccccc2)c(C)n1C (stereo unspecified) ; wanted: its growth rescue
**Result** -0.332

**Query** Return reported growth rescue; argument: `Cc1c(C(=O)Nc2ccccn2)oc2ccc(Br)cc12`
**Result** -0.794

**Query** For the compound `Oc1ccc(Br)cc1/C=N/Nc1ccccn1` , what growth rescue is on record?
**Result** 246

**Query** Give its growth rescue value. Item: `CCOC(=O)N1CCN(CC(=O)n2c(C)c(C)c3ccccc32)CC1`
**Result** 1.25

* * *

experiment: rescue of yeast from PfHsp40 toxicity, primary screen, S. cerevisiae, ATP luminescence (AID 504582);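 also: yeast W303a lacking pdr1 and pdr3 grown in galactose medium; growth measured after three days at 30 °C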; conditions: S. cerevisiae expressing PfHsp40, growth rescue, at 12.5 µM, stronger effect = higher value
About 2,300 (0.68%) of roughly 340,000 compounds were called active. For the sample, actives were picked, then their nearest neighbours and some compounds at random.
I'd be grateful if you could share measured growth rescue for these entries.
Kindly answer with a numeric value in %, unit omitted.

**Query** Fill in: growth rescue of `Cc1ccc(Cc2cncc(O)c2)cc1S(=O)(=O)O` is ___
**Result** -2.67

**Query** For the molecule `CCOC(=O)Cc1csc(SCC(=O)Nc2ccc(C)cc2F)n1` , what growth rescue is on record?
**Result** 0.85

**Query** Would you mind telling me what growth rescue value was observed for `O=C(CSc1n[nH]c(-c2cccnc2)n1)Nc1ccc(Cl)cc1` ?
**Result** -2.05

**Query** Reported growth rescue, molecule `CC(=O)Nc1ccccc1NC(=O)c1cc(C)cc(C)c1` : ____
**Result** 51.5

**Query** Recorded growth rescue for `C#CCOCCOCCOCCNc1nc(N2CCN(C(=O)[C@H](C(C)C)n3cc(CCO)nn3)CC2)nc(N2CCN(C(=O)[C@H](C(C)C)n3cc(CCO)nn3)CC2)n1` , please?
**Result** -2.28

**Query** I would be grateful if you could share the reported growth rescue for `Cc1ccnc2nc(C(=O)Nc3nnc(-c4ccccc4)o3)nn12` .
**Result** -0.238

**Query** Please report the recorded growth rescue for `CCOC(=O)c1sc(NC(=O)c2sc(C)nc2C)nc1C` .
**Result** -1.17

**Query** Look up growth rescue: `COc1ccc(/C=C(\C#N)c2c[nH]c3ccccc23)cc1`
**Result** 509

**Query** Suppose we examine the molecule `COc1ccc2[nH]c(C(=O)N3CCN(C)CC3)c(C)c2c1` ; what growth rescue value has been reported?
**Result** -0.899

**Query** # growth rescue lookup, item `CC1(C)NC(=O)N(CCCCSc2ccc(Cl)cc2)C1=O`
**Result** 0.18

**Query** Which measured growth rescue value corresponds to `CCCc1nnc(NC(=O)CCC(=O)NC2CC2)s1` ?
**Result** 0.339

**Query** # get_value(readout='growth rescue', item= C#CCOCCOCCOCCNc1nc(N2CCN(C(=O)[C@H](CCCN=C(N)N)n3cc(C(N)[C@@H](C)CC)nn3)CC2)nc(N2CCN(C(=O)[C@H](CO)n3cc([C@@H](N)C(C)C)nn3)CC2)n1 (some centres not stated) )
**Result** -0.354

**Query** For COc1ccc(NC(=O)N2CCCC2C(=O)NCc2ccccc2Cl)cc1 (configuration not stated) , what is its reported growth rescue?
**Result** -2.16

**Query** GET /values?readout=growth rescue&item= `Cn1nccc1NC(=O)Nc1ccc(OC(F)(F)F)cc1`
**Result** -0.0415

**Query** Would you mind telling me what growth rescue value was observed for `CCCCn1nc(C(=O)Nc2cccc(C(=O)NC3CC3)c2)c2ccccc2c1=O` ?
**Result** 1.46

**Query** Can you share its growth rescue? I mean this molecule: `NC(=O)C1CCN(C(=O)c2cn(-c3ccccc3)nc2-c2cccnc2)CC1`
**Result** -1.23

**Query** Entry `O=C1CC(=O)Nc2cc(S(=O)(=O)N3CCN(c4cccc(C(F)(F)F)c4)CC3)ccc2N1` : reported growth rescue = ?
**Result** -1.27

**Query** For the molecule `O=C(Nc1ccc(OC(F)(F)F)cc1)c1ccc2c(c1)no[n+]2[O-]` , what growth rescue is on record?
**Result** 178

**Query** Given `COc1ccc(C(=O)Nc2cc(C)c(NC(=O)c3ccccc3OC)cn2)cc1` , state its recorded growth rescue.
**Result** 1.75

**Query** growth rescue for `Cc1ccc(-c2nn(C(C)(C)C)c3ncnc(N)c23)cc1` ?
**Result** 263

**Query** Item under review: `CC1(C)C=Cc2c(ccc3c2OC[C@@H](c2ccc(O)cc2O)C3)O1` . Reported growth rescue?
**Result** 232

**Query** Recorded growth rescue for Cc1ccc(-c2nn(-c3ccccc3)cc2C(=O)NC2CCC(O)CC2)cc1 (configuration not stated) , please?
**Result** -0.972

**Query** Any idea what growth rescue was measured for Cn1c(C(=O)N2CCCC(C(=O)NCc3ccccc3)C2)cc2sccc21 (configuration not stated) ?
**Result** 0.412

**Query** Bench note: what growth rescue did `COc1ccccc1C(=O)NCC(=O)OCC(=O)Nc1nnc(-c2ccccc2)o1` show?
**Result** -1.88

**Query** Fill in the blank: the reported growth rescue of CCN(CC)S(=O)(=O)c1ccc(CNC(=O)CN2C(=O)NC3(CCc4ccccc43)C2=O)cc1 (configuration not stated) is ____.
**Result** 0.805

**Query** Need growth rescue of `c1ccc(-c2nccc(-c3ccc(-n4cnc5ccccc54)cc3)n2)nc1` , thanks.
**Result** 3.45

**Query** For the molecule shown here, COc1ccc(OCC(O)CNC(=O)Nc2ccc(Cl)cc2)cc1 (configuration not stated) , give the reported growth rescue.
**Result** -1.02

**Query** Quick one: growth rescue of COc1cccc(NC(=O)C2CCCN2C(=O)OCc2ccccc2)c1 (configuration not stated) ?
**Result** 0.607

**Query** GET /values?readout=growth rescue&item= `Cc1nc2ccccn2c1C(=O)NN=C1CCN(C)CC1`
**Result** -0.557

**Query** Requested read-out: growth rescue. Entry: `CCOc1ccc(-c2ccc(SCC(=O)N3CCOCC3)nn2)cc1`
**Result** -0.865

**Query** Query: growth rescue; subject: `O=C(/C=C/c1ccccc1[N+](=O)[O-])OCC(=O)N1CCCC1`
**Result** 48.9

**Query** So what's the measured growth rescue for this one? CSCCC(NC(=O)c1ccccc1)C(=O)N1CCN(Cc2ccc(Cl)cc2)CC1 (configuration not stated)
**Result** 0.474

**Query** Consider the molecule shown here: `CCC/C(=N\O)c1c[nH]c2ccccc12` What is its recorded growth rescue?
**Result** 0.247

**Query** What does the record list as growth rescue for `Nc1[nH]c(=S)nc2nc(-c3ccccc3)c(-c3ccccc3)nc12` ?
**Result** 38.7

**Query** # input molecule: `Cn1c(CCc2ccccc2)nnc1SCC(N)=O` ; wanted: its growth rescue
**Result** 0.061

**Query** Reported growth rescue, molecule `S=C(NCCCc1ccccc1)Nc1ccc(Br)cc1` : ____
**Result** 263

**Query** Given `O=C(Nc1nnc(-c2ccc(Cl)cc2)o1)c1ccccc1Br` , state its recorded growth rescue.
**Result** 92.7
